Molecular target: human GLP-1 receptor (Homo sapiens, UniProt P43220)
Construct: expressed in transfected cells
Sequence (P43220 24-463): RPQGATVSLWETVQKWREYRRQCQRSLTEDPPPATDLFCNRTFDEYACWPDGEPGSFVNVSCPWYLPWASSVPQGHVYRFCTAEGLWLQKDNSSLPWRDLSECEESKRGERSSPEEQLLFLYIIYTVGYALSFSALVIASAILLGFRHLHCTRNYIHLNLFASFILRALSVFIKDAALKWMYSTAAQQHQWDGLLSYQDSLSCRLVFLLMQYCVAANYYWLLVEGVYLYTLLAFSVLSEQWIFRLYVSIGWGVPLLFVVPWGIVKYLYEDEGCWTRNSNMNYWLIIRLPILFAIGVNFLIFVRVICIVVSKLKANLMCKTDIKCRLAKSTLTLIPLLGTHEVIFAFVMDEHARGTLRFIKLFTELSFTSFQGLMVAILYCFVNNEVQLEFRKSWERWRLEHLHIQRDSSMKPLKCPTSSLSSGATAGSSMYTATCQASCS
Test: GLP-1R cAMP Assay (HitHunter cAMP accumulation)
Type: cell-based
Details: cAMP accumulation, CHO cells stably overexpressing human GLP-1 receptor, 30 min treatment; read-out: EC50
Procedure: cAMP accumulation was measured in Chinese hamster ovary (CHO) cells stably overexpressing the human GLP-1 receptor using the HitHunter cAMP Assay for Small Molecules Kit (Eurofins). Briefly, cells were grown in Ham's F12 Nutrient Mix with 10% FBS, and lifted with Cell Dissociation Buffer, Enzyme free, PBS based (ThermoFisher). […] After overnight incubation, luminescence was measured using a Perkin Elmer Envision plate reader. Dose response curves were analyzed using GraphPad Prism 9.0. […]
pEC50: −log10 of the molar value.
property: pEC50

Record O=C(O)c1cc(F)c2nc(CN3CCC(c4nc(COc5ccc(Cl)cc5F)ccc4F)C3)n(C[C@@H]3CCO3)c2c1 (some centres unmarked) ; system human GLP-1 receptor (Homo sapiens, UniProt P43220); pEC50 = > 7.30

Record CCn1cncc1Cn1c(CN2CC3(CC(Oc4cccc(COc5ccc(Cl)cc5Cl)c4)C3)C2)nc2ccc(C(=O)O)cc21 ; system human GLP-1 receptor (Homo sapiens, UniProt P43220); pEC50 = 6.30 to 7.30

Record O=C(O)c1cc(F)c2nc(CN3CC[C@H](c4ccnc(COc5ccc(Cl)cc5F)c4)C3)n(C[C@@H]3CCO3)c2c1 (single isomer, unassigned) ; system human GLP-1 receptor (Homo sapiens, UniProt P43220); pEC50 = > 7.30

Record N#Cc1ccc(OCc2cccc([C@H]3CCN(Cc4nc5c(F)cc(C(=O)O)cc5n4C[C@@H]4CCO4)C3)c2)c(F)c1 ; system human GLP-1 receptor (Homo sapiens, UniProt P43220); pEC50 = < 6.30

Record CCn1cncc1Cn1c(CN2CCC(Cc3cccc4c3OC(C)(c3ccc(Cl)cn3)O4)CC2)nc2ccc(C(=O)O)cc21 (centres unmarked) ; system human GLP-1 receptor (Homo sapiens, UniProt P43220); pEC50 = > 7.30

Record O=C(O)c1ccc2nc(CN3CC[C@H](Oc4ccnc(COc5ccc(C(F)F)cc5F)c4)C3)n(C[C@@H]3CCO3)c2c1 ; system human GLP-1 receptor (Homo sapiens, UniProt P43220); pEC50 = > 7.30

Record N#Cc1ccc(OCc2cc([C@@H]3CCN(Cc4nc5c(F)cc(C(=O)O)cc5n4C[C@@H]4CCO4)C3)ccc2F)c(F)c1 ; system human GLP-1 receptor (Homo sapiens, UniProt P43220); pEC50 = > 7.30

Record O=C(O)c1ccc2nc(CN3CC(Cc4ccnc(COc5ccc(Cl)cc5Cl)c4)C3)n(Cc3ncco3)c2c1 ; system human GLP-1 receptor (Homo sapiens, UniProt P43220); pEC50 = > 7.30

Record Cc1cc(Oc2ccnc(COc3ccc(C#N)cc3F)n2)ccc1Cc1nc2ccc(C(=O)O)cc2n1C[C@@H]1CCO1 ; system human GLP-1 receptor (Homo sapiens, UniProt P43220); pEC50 = > 7.30

Record N#Cc1ccc(OCc2nc(C34CC3CN(Cc3nc5c(F)cc(C(=O)O)cc5n3C[C@@H]3CCO3)C4)ccc2F)c(Cl)c1 (some centres unmarked) ; system human GLP-1 receptor (Homo sapiens, UniProt P43220); pEC50 = > 7.30

Record N#Cc1ccc(OCc2cc(Oc3ccc(Cc4nc5c(F)cc(C(=O)O)cc5n4C[C@@H]4CCO4)c(F)c3)ccn2)c(F)c1 ; system human GLP-1 receptor (Homo sapiens, UniProt P43220); pEC50 = > 7.30

Record O=C(O)c1ccc2nc(CN3CCC(c4cccc(COc5ccc(Cl)cc5Cl)c4)C3)n(C[C@@H]3CCO3)c2c1 (some centres unmarked) ; system human GLP-1 receptor (Homo sapiens, UniProt P43220); pEC50 = > 7.30

Record O=C(O)c1cc(F)c2nc(CN3CC=C(c4nc(COc5ccc(Cl)cc5Cl)ccc4F)C3)n(C[C@@H]3CCO3)c2c1 ; system human GLP-1 receptor (Homo sapiens, UniProt P43220); pEC50 = > 7.30

Record N#Cc1ccc(OCc2nc(N3CC[C@@H](Cc4nc5c(F)cc(C(=O)O)cc5n4C[C@@H]4CCO4)C3)ccc2F)c(F)c1 ; system human GLP-1 receptor (Homo sapiens, UniProt P43220); pEC50 = > 7.30

Record CCn1cncc1Cn1c(CN2CCC(Cc3cccc4c3OC(C)(c3ccc(Cl)cc3F)O4)CC2)nc2ccc(C(=O)O)cc21 (centres unmarked) ; system human GLP-1 receptor (Homo sapiens, UniProt P43220); pEC50 = > 7.30

Record N#Cc1ccc(OCc2nc([C@H]3CCN(Cc4nc5c(F)cc(C(=O)O)cc5n4C[C@@H]4CCO4)C3)ccc2F)c(F)c1 ; system human GLP-1 receptor (Homo sapiens, UniProt P43220); pEC50 = 6.30 to 7.30

Record O=C(O)c1ccc2nc(CN3CCC(c4cc(COc5ccc(Cl)cc5F)ccn4)C3)n(C[C@@H]3CCO3)c2c1 (some centres unmarked) ; system human GLP-1 receptor (Homo sapiens, UniProt P43220); pEC50 = > 7.30

Record O=C(O)c1cc(F)c2nc(CN3CC=C(c4cc(COc5ccc(Cl)cc5F)ncc4F)C3)n(C[C@@H]3CCO3)c2c1 ; system human GLP-1 receptor (Homo sapiens, UniProt P43220); pEC50 = > 7.30

Record N#Cc1ccc(OCc2nc(N3CC[C@@H](Cc4nc5ccc(C(=O)O)cc5n4C[C@@H]4CCO4)C3)ccc2F)c(F)c1 ; system human GLP-1 receptor (Homo sapiens, UniProt P43220); pEC50 = > 7.30

Record O=C(O)c1ccc2nc(Cc3cc(F)c(Oc4ccnc(COc5ccc(Cl)cc5F)c4)cc3F)n(C[C@@H]3CCO3)c2c1 ; system human GLP-1 receptor (Homo sapiens, UniProt P43220); pEC50 = > 7.30

Record CCn1cncc1Cn1c(CN2CC(Cc3cccc4c3OC(C)(c3ccc(Cl)cn3)O4)C2)nc2ccc(C(=O)O)cc21 (centres unmarked) ; system human GLP-1 receptor (Homo sapiens, UniProt P43220); pEC50 = 6.30 to 7.30

Record O=C(O)c1cc(F)c2nc(Cc3cc(F)c(Oc4ccnc(COc5ccc(Cl)cc5F)c4)cc3F)n(C[C@@H]3CCO3)c2c1 ; system human GLP-1 receptor (Homo sapiens, UniProt P43220); pEC50 = > 7.30

Record O=C(O)c1ccc2nc(CN3CC=C(c4ccnc(COc5ccc(Cl)cc5Cl)c4)C3)n(C[C@@H]3CCO3)c2c1 ; system human GLP-1 receptor (Homo sapiens, UniProt P43220); pEC50 = > 7.30

Record N#Cc1ccc(OCc2nc([C@]34C[C@H]3CN(Cc3nc5c(F)cc(C(=O)O)cc5n3C[C@@H]3CCO3)C4)ccc2F)c(F)c1 ; system human GLP-1 receptor (Homo sapiens, UniProt P43220); pEC50 = > 7.30

Record N#Cc1ccc(OCc2ccc(F)c(C3CCN(Cc4nc5c(F)cc(C(=O)O)cc5n4C[C@@H]4CCO4)C3)n2)c(F)c1 (some centres unmarked) ; system human GLP-1 receptor (Homo sapiens, UniProt P43220); pEC50 = > 7.30

Record O=C(O)c1ccc2nc(CN3CC=C(c4nc(COc5ccc(Cl)cc5F)ccc4F)C3)n(C[C@@H]3CCO3)c2c1 ; system human GLP-1 receptor (Homo sapiens, UniProt P43220); pEC50 = > 7.30

---

Target: human GLP-1 receptor (Homo sapiens, UniProt P43220)
Construct: expressed in transfected cells
Assay: GLP-1R cAMP Assay (HitHunter cAMP accumulation)
Format: cell-based
Conditions: EC50, cAMP accumulation, CHO cells stably overexpressing human GLP-1 receptor, 30 min treatment
property: EC50

Measured EC50, O=C(O)c1cc(F)c2nc(CN3CC[C@H](Oc4ccnc(COc5ccc(Cl)cc5F)n4)C3)n(CC3CCO3)c2c1 (stereo partly shown) : < 50 nM

---

Biological target: human GLP-1 receptor (Homo sapiens)
Construct: expressed in transfected cells
Assay: GLP-1R cAMP Assay (HitHunter cAMP accumulation)
Format: cell-based
Details: cAMP accumulation, CHO cells stably overexpressing human GLP-1 receptor, 30 min treatment; read-out: EC50
property: EC50

Measured EC50, O=C(O)c1cc(F)c2nc(CN3CC[C@H](c4cccc(COc5ccc(Cl)cc5F)n4)C3)n(C[C@@H]3CCO3)c2c1 : < 50 nM

Measured EC50, N#Cc1ccc(OCc2nc(N3CC[C@H](Cc4nc5c(F)cc(C(=O)O)cc5n4C[C@@H]4CCO4)C3)ccc2F)c(F)c1 : < 50 nM

Measured EC50, O=C(O)c1ccc2nc(CN3CC=C(c4cc(COc5ccc(Cl)cc5Cl)ccn4)C3)n(Cc3cnco3)c2c1 : < 50 nM

Measured EC50, N#Cc1ccc(OCc2cc([C@H]3CCN(Cc4nc5ccc(C(=O)O)cc5n4C[C@@H]4CCO4)C3)ccc2F)c(F)c1 : 50 to 500 nM
